Provenance of the data: PubChem BioAssay (NCI)

test system: RPMI-8226 leukemia; assay: NCI tumour cell line growth inhibition, 48 h
Reported TGI is given for each of the following molecules.

Entry COc1ccc(Br)c2c1CC(C(=O)O)CC2 (stereo not given) : reported TGI = ?
> 100 µM

Need TGI of COc1cc2cc(C(=O)N3CC(CCl)c4c3cc(NC(=O)C(C)(C)c3ccccc3[N+](=O)[O-])c3ccccc43)[nH]c2c(OC)c1OC (stereo not given) , thanks.
> 600 µM

Fill blank: measured TGI of the molecule `COc1cc2nc(Cl)nc(Nc3cccc(C(=O)/C=C/c4ccccc4)c3)c2cc1OC` is ____.
3.48 µM

// returns reported TGI for input `Nc1nc(/C=C\c2ccc([N+](=O)[O-])o2)nc(N2CCN(c3ccccc3)CC2)n1`
> 100 µM

Fill in: TGI of `CC(=O)OCC(=O)[C@@]1(O)CC[C@H]2[C@@H]3CCC4=CC(=O)[C@H](C)C[C@]4(C)[C@H]3[C@@H](O)C[C@@]21C` is ___
> 100 µM

Any idea what its TGI is? The molecule is `CCOC(=O)Cc1c[nH]c(=S)[nH]c1=O`
> 100 µM

Which TGI reading was recorded for the molecule `COc1ccc(/C=C2\OC(=O)C(Cl)=C2c2ccc(OC)cc2)cc1` ?
> 100 µM

What TGI value was documented for this molecule, `CCN(CC)CCOc1ccc(C(=C(C)c2ccc(Cl)cc2)c2ccc(OCCN(CC)CC)cc2)cc1` ?
1.49 µM

Would you mind telling me what TGI value was observed for C=CCC(N[C@H](CO)C(C)C)c1cn(C(=O)OCC)c2ccccc12 (stereo not given in full) ?
40.7 µM

TGI for `COC(=O)CCC(=O)N1Cc2cc(C)ccc2N(C(=O)CCC(=O)OC)Cc2cc(C)ccc21` ?
> 100 µM

###

system: SW-620 colon; experiment: NCI tumour cell line growth inhibition, 48 h
metric: TGI

1) O=C(NCCCCCCNC(=O)c1cccc2ccccc12)c1cccc2ccccc12: > 100 µM
2) C/C(=N\N)C(CN(C)C)C(c1ccccc1)c1c(O)c2ccccc2oc1=O (centres undefined): > 100 µM
3) COc1ccccc1[N-]C(C1=C([O-])c2ccccc2C1=O)c1ccccc1.COc1ccccc1[N-]C(C1=C([O-])c2ccccc2C1=O)c1ccccc1.[Cu+2] (centres undefined): > 100 µM
4) NCCCCNCCCN1CC1: > 100 µM
5) COc1cc(S(=O)(=O)Nc2ccc(-c3csc(N4C(=O)CSC4c4cccs4)n3)cc2)ccc1Cl (centres undefined): 68.5 µM
6) N#CSc1ncnc2nc[nH]c12: > 100 µM
7) NCCCNCCCNCCCN: > 100 µM
8) C=C(C)[C@@H]1CC[C@]2(C(=O)NCCCN)CC[C@]3(C)[C@H](CC[C@@H]4[C@@]5(C)CC[C@H](O)C(C)(C)[C@@H]5CC[C@]43C)[C@@H]12: > 100 µM
9) NC(=O)[C@H]1CCN(c2ncnc(N)c2F)C[C@@H]1N1CCC[C@@H](Nc2cc(Cl)cc(C(F)(F)F)c2)C1=O: > 100 µM
10) CC(=O)/C(=C\c1ccco1)C(=O)Nc1ccccc1: > 100 µM

Recorded TGI for `COc1cc(NC(C)=O)c2[nH]c3c(C)cc(NC(C)=O)c(C)c3c2c1` , please?
> 100 µM

Returns the measured TGI for the input compound. Input: Nc1ncnc2c1ccn2C1OC2COP(=O)(O)OC2C1O (centres undefined)
> 44.5 µM

# TGI lookup, item `Cn1c(=O)c2[nH]c(/N=N/N3CCN(CCO)CC3)nc2n(C)c1=O`
> 100 µM

Consider the compound shown here: O=C(O)[C@@H]1C2CC([C@@H]1C(=O)O)[C@H](N1C(=O)CCC1=O)[C@@H]2Br (some centres undefined) What is its recorded TGI?
> 100 µM

Using the record for `Cc1ccc(C(=O)Nc2ccc(S(=O)(=O)O)c3cc(S(=O)(=O)O)cc(S(=O)(=O)O)c23)cc1NC(=O)c1cccc(N)c1` , report its TGI.
> 100 µM

I'd like to know its TGI. The compound in question is `COC(=O)N1C[C@@]2(C=CC3(CC2)OCCO3)c2ccccc21`
> 100 µM

I am curious: what TGI value has been reported for `O=c1n(/N=C/c2ccccc2)c(=O)n2n1C1C=CC2CC1` ?
> 100 µM

Form field: reported TGI of CCCN1C(=O)/C(=c2\sc3n(c2=O)C2C(NN=3)N(CC)C(=O)N2CC)c2ccccc21 (centres undefined)
> 100 µM

Which TGI value is on record for CC1(C)CCC2(C(=O)OC3OC(CO)C(O)C(O)C3O)CC[C@]3(C)C(=CCC4C5(C)CC[C@H](OC6OC(C(=O)O)C(O)C(O)C6O)C(C)(C)C5CCC43C)C2C1 (some centres undefined) ?
8.87 µM

###

test system: LXFL 529 NSCLC; experiment: NCI tumour cell line growth inhibition, 48 h
metric: TGI

1. CCOC(=O)C=C1CCN(C(=O)c2ccccc2)CC1: > 100 µM
2. NCC1(N2CCOCC2)C2CCCC21CO (stereo not drawn): > 100 µM
3. O=C(CCn1[nH]c(=O)c(Cl)c(Cl)c1=O)NOCCCc1ccccc1: > 100 µM

What measured TGI goes with `COc1ccc(/C=C(\Cl)c2ccc(OC)c(OC)c2)cc1OC` ?
> 100 µM

May I ask what TGI has been recorded for `CC(=O)[O][Pb]([O]C(C)=O)([c]1ccccc1)[c]1ccccc1` ?
> 100 µM

###

test system: MCF7 breast; assay: NCI tumour cell line growth inhibition, 48 h
metric: TGI

1) Cc1c2cnccc2c(C)c2c1[nH]c1ccc(O)cc12: 5.34 µM
2) O=C(CCl)c1ccc([N+](=O)[O-])o1: 5.82 µM
3) CCc1nnc(CC)n1NCCCC(=O)O: > 100 µM
4) Oc1ccccc1/C=N/Nc1nnc2c3ccccc3c3ccccc3c2n1: > 100 µM
5) Nc1ncnc2sc(=S)c3c(c12)CCC3: 92.8 µM
6) O=C(NC(C(F)(F)F)(C(F)(F)F)P(=O)(c1ccccc1)c1ccccc1)C(C(F)(F)F)C(F)(F)F: 62.1 µM
7) CC1=C/C(=N\OCC(=O)O)CC(c2ccc(C(C)C)cc2)C1 (stereo not given): > 100 µM
8) CC(C)=CCOc1cc(NC(=S)c2ccoc2C)ccc1Cl: > 100 µM

// next entry
Give its TGI value. Item: `O=C(O)CSSCC(=O)O`
> 100 µM

###

system: SF-268 CNS; experiment: NCI tumour cell line growth inhibition, 48 h
metric: TGI

Observe how each entry below is paired with its result.
1. CCOC(=O)Cc1c[nH]c(=S)[nH]c1=O: > 100 µM
2. CCOC(=O)c1c2c(n(CC(C)C)c1C)-c1nc[nH]c1C(=O)C2=O: 28.5 µM
3. CCOP(=O)(OCC)C1CCCCOC1=O (stereo not drawn): > 100 µM
4. COc1cc2c(/C=C3/C(=O)Nc4ccc(Cl)cc43)c(Cl)n(Cc3ccccc3)c2cc1C: > 100 µM
5. O=C(O)C1CC2C3CCC2C1C3=O (stereo not drawn): > 100 µM

Look up TGI for this molecule: C=C1C(=O)O[C@H]2C[C@@H](C)[C@@H]3CC(=O)OC[C@@]3(C)CC12 (stereo partly drawn)
> 100 µM

I'd like to know its TGI. The molecule in question is `COC(=O)[C@H](Cc1ccccc1)NC(=O)NCCN(CCNC(=O)N[C@@H](Cc1ccccc1)C(=O)OC)C(=O)N[C@@H](Cc1ccccc1)C(=O)OC`
31.5 µM

For the molecule `O=C(CCN1CCCC1)Nc1ccc2c(NCc3ccc(F)cc3)c3ccccc3nc2c1` , what TGI is on record?
1.91 µM

Can you share its TGI? I mean this molecule: `Nc1nc(/C=C\c2ccc([N+](=O)[O-])o2)nc(N2CCN(c3ccccc3)CC2)n1`
> 100 µM

Need TGI of `CN(C)CCCNC(=O)c1cc(NC(=O)CCNS(=O)(=O)c2ccc3c(c2)C(=O)c2ccccc2C3=O)cn1C` , thanks.
> 100 µM

Entry `CCc1nnc(CC)n1NCCCC(=O)O` has what TGI?
> 100 µM

I would be grateful if you could share the reported TGI for `CN(C)c1ccc2c(NCCCCCCNc3ccnc4cc(N(C)C)ccc34)ccnc2c1` .
> 100 µM

Bench note: what TGI did `O=C(NC(C(F)(F)F)(C(F)(F)F)P(=O)(c1ccccc1)c1ccccc1)C(C(F)(F)F)C(F)(F)F` show?
> 100 µM

Using the record for COc1ccc(C2c3cc4c(cc3C(O)C3CCC(=O)N23)OCO4)cc1 (stereo not drawn) , report its TGI.
> 100 µM

Any idea what its TGI is? The molecule is CC(C)OP(=O)(OC(C)C)C(C(C)C)N(C)/C(N)=N\C1=NC(C(F)(F)F)(C(F)(F)F)N=C(C(C(F)(F)F)C(F)(F)F)O1 (stereo not drawn)
12 µM

Consider the molecule shown here: `COc1ccc(C(=O)/C=C/c2ccc(Cl)cc2)cc1S(=O)(=O)Nc1c(N)nc(SC)[nH]c1=O` What is its recorded TGI?
7.32 µM

Need TGI of `COc1ccc(C(=O)/C=C/c2ccc(OCC(=N)N)cc2)cc1OC` , thanks.
> 10 µM

Can you look up the measured TGI of `NC(=S)NNC(=O)/C(=C/c1ccc(/C=C(\NC(=O)c2ccccc2)C(=O)NNC(N)=S)cc1)NC(=O)c1ccccc1` for me?
> 100 µM

Which TGI is reported for this molecule? `CCOC(=O)CSc1ccnc(=O)[nH]1`
> 100 µM
